Catalogue of max response readings, one per entry.
- System: NIH3T3
- experimentalProtocol: Cytotoxic Profiling of Annotated Libraries Using Quantitative High-Throughput Screening (AID 1296008); further: on the % scale 0 is the no-effect control and ±100 the full control effect; nearly all actives have a fitted effect of over 60% in size
- details: Five cell lines viability, CellTiter-Glo ATP luminescence, 48-72 h; stronger effect = lower value
Inconclusive results are not listed. Activity calls are given as the source filed them. The call rests on the fitted dose curve; in most records, active means well fitted inhibition curve with a large enough effect; inconclusive means small, poorly fitted or top-dose-only effect; inactive means flat fitted curve, though single readings scatter.

Some entries whose results are on file:
| compound | max response |
| --- | --- |
| Cc1ccc(C(=O)C(=O)O)cc1C | 2.73% (inactive) |
| CC(C)(C)CC(=O)OCC(=O)[C@@]1(O)CC[C@H]2[C@@H]3CCC4=CC(=O)C=C[C@]4(C)[C@H]3[C@@H](O)C[C@@]21C | -9.28% (inactive) |

stdin: Look up max response: `Cc1oc(=O)oc1COC(=O)[C@@H]1N2C(=O)[C@@H](NC(=O)[C@H](N)c3ccccc3)[C@H]2SC1(C)C`
stdout: -3.48% (inactive)

stdin: Look up max response: `CC(=O)OCC[N+](C)(C)C`
stdout: 3.81% (inactive)

stdin: Look up max response: `Cc1cnc(NS(=O)(=O)c2ccc(N)cc2)nc1`
stdout: 2.98% (inactive)

stdin: Look up max response: `C1N2CN3CN1CN(C2)C3`
stdout: -2.39% (inactive)

stdin: Look up max response: CCCCC(CC)CNC(=O)CC(C)OC(=O)CCC(=O)O (stereo unspecified)
stdout: -1.58% (inactive)

stdin: Look up max response: CC(C(=O)O)c1ccc(/C=C2\CCCCC2=O)cc1 (stereo unspecified)
stdout: 3.05% (inactive)

stdin: Look up max response: `CCCCCCCC(=O)[O-].CCCCCCCC(=O)[O-].[Zn+2]`
stdout: 4.51% (inactive)

stdin: Look up max response: `Cc1ccc2ccc(Cl)cc2n1`
stdout: 3.19% (inactive)

stdin: Look up max response: `OCCc1ccccc1`
stdout: -0.715% (inactive)

----------
- Tested on: KB-3-1
- experimentalProtocol: Cytotoxic Profiling of Annotated Libraries Using Quantitative High-Throughput Screening (AID 1296008); further: on the % scale 0 is the no-effect control and ±100 the full control effect; nearly all actives have a fitted effect of over 60% in size
- details: Five cell lines viability, CellTiter-Glo ATP luminescence, 48-72 h; stronger effect = lower value
- Procedure: Cell-based phenotypic screening is a commonly used approach to discover biological pathways, novel drug targets, chemical probes and high-quality hit-to-lead molecules. […] A pintool (Kalypsys) was used to transfer 23 nL of compound solution to the 1536-well assay plates. […] Plates were left at room temperature for 10 min before imaging the ATP-coupled luminescence using a ViewLux microplate imager (PerkinElmer, Waltham, MA).
Records with an inconclusive call do not appear.
Catalogue of max response readings, one per entry.
Use % as the unit, but write only the number.

Some entries whose results are on file:
| molecule | unitAbbreviation | max response |
| --- | --- | --- |
| O=P(O)(O)OCC(O)CO (configuration not stated) | % | -6.39 |
| O=C(O)c1ccccc1Nc1cc(Cl)ccc1C(=O)O | % | -6.82 |

stdin: Look up max response: C1=CC2C3C=CC(C3)C2C1 (configuration not stated)
stdout: -6.71

stdin: Look up max response: `O=C(OCC(COC(=O)c1cccnc1)(COC(=O)c1cccnc1)COC(=O)c1cccnc1)c1cccnc1`
stdout: -20.2

stdin: Look up max response: `Cc1c(C)c2c(c(C)c1OC(=O)CCC(=O)OCCO)CC[C@@](C)(CCC[C@H](C)CCC[C@H](C)CCCC(C)C)O2`
stdout: -31.1

----------
- System: Tov112D
- experimentalProtocol: Primary qHTS to identify gynecologic anti-cancer compounds using libraries of approved drugs and bioactive compounds (AID 1345084); further: nearly all actives have a fitted effect of over 55% in size
- details: Gynecologic cancer cell panel viability, ATPlite luminescence, 48 h; series mostly up to 57.5 µM
Records with an inconclusive call do not appear. Calls of active or inactive are those of the source. Calls follow the shape of the dose curve; as a rule, active = well fitted cell-killing curve with a large enough effect; inconclusive = small, poorly fitted or top-dose-only effect, or effect the other way; inactive = flat fitted curve, though single readings scatter.
Hello, when you answer, please use one of the following outcomes: YES (active), NO (inactive)

Worked examples, 5 molecules total:
| molecule | labelValue |
| --- | --- |
| CCC(=O)Oc1ccc2c(c1)CC[C@@H]1[C@@H]2CC[C@@]2(C)[C@H]1C[C@@H](OC(=O)CC)[C@@H]2OC(=O)CC | NO |
| CCCCC(CC)COC(=O)c1ccccc1C(=O)O (stereo not drawn) | NO |
| Cc1c(N)cccc1C(F)(F)F | NO |
| Cc1cnc(NS(=O)(=O)c2ccc(N)cc2)nc1 | NO |
| O=C(OCC(O)CO)c1ccccc1Nc1ccnc2c(C(F)(F)F)cccc12 (stereo not drawn) | NO |

stdin: Each molecule tested received a call. Report the one for `O=C(OCC(COC(=O)c1cccnc1)(COC(=O)c1cccnc1)COC(=O)c1cccnc1)c1cccnc1` .
stdout: NO

stdin: Each molecule tested received a call. Report the one for CN1CCCN(C(c2ccccc2)c2ccc(Cl)cc2)CC1 (stereo not drawn) .
stdout: YES

stdin: Each molecule tested received a call. Report the one for `CN1CCC(N(Cc2cccs2)c2ccccc2)CC1` .
stdout: NO

stdin: Each molecule tested received a call. Report the one for `O=C(O)CCC(=O)OC[C@@H](NC(=O)C(Cl)Cl)[C@H](O)c1ccc([N+](=O)[O-])cc1` .
stdout: NO

----------
- Test system: Tov-21-G
- experimentalProtocol: Primary qHTS to identify gynecologic anti-cancer compounds using libraries of approved drugs and bioactive compounds (AID 1345084); further: nearly all actives have a fitted effect of over 55% in size
- details: Gynecologic cancer cell panel viability, ATPlite luminescence, 48 h; series mostly up to 57.5 µM
Inconclusive results are not listed. The source made the active and inactive calls. Calls follow the shape of the dose curve; as a rule, active = well fitted cell-killing curve with a large enough effect; inconclusive = small, poorly fitted or top-dose-only effect, or effect the other way; inactive = flat fitted curve, though single readings scatter.
Hello, when you answer, please use one of the following outcomes: active, inactive

Worked examples, 8 compounds total:
| compound | tgt | labelValue |
| --- | --- | --- |
| CC1(C)O[C@@H]2C[C@H]3[C@@H]4C[C@H](F)C5=CC(=O)C=C[C@]5(C)[C@@]4(F)[C@@H](O)C[C@]3(C)[C@]2(C(=O)CO)O1 | Tov-21-G | inactive |
| Cn1cc(S(C)=O)c(=O)c2ccc(F)cc21 (centres undefined) | Tov-21-G | inactive |
| CO[C@@]1(NC(=O)CSC[C@@H](N)C(=O)O)C(=O)N2C(C(=O)O)=C(CSc3nnnn3C)CS[C@@H]21 | Tov-21-G | inactive |
| O=C(OCC(COC(=O)c1cccnc1)(COC(=O)c1cccnc1)COC(=O)c1cccnc1)c1cccnc1 | Tov-21-G | inactive |
| CCNC(=O)NCCCOc1cccc(CN2CCCCC2)c1 | Tov-21-G | inactive |
| CC(=O)N(CC(O)CO)c1c(I)c(C(=O)NCCO)c(I)c(C(=O)NCC(O)CO)c1I (centres undefined) | Tov-21-G | inactive |
| CNC(=O)c1cnn(-c2nc(N)c3ncn([C@@H]4O[C@H](CO)[C@@H](O)[C@H]4O)c3n2)c1 | Tov-21-G | inactive |
| CC(C)=CCC/C(C)=C/CC/C(C)=C/CCC(=O)OC/C=C(\C)CCC=C(C)C | Tov-21-G | inactive |

stdin: Each compound tested received a call. Report the one for `OC1(c2ccccc2)CCNCC1` .
stdout: inactive

stdin: Each compound tested received a call. Report the one for `CCCCCCOC(=O)NC(=N)c1ccc(NCc2nc3cc(C(=O)N(CCC(=O)OCC)c4ccccn4)ccc3n2C)cc1` .
stdout: inactive

stdin: Each compound tested received a call. Report the one for `CC(=O)OCC(=O)Nc1cc(C#N)cc(NC(=O)COC(C)=O)c1Cl` .
stdout: inactive

----------
- experimentalProtocol: Primary qHTS for inhibitors of nuclear receptor binding SET domain protein 2 (NSD2) in an isogenic RCH-ACV NSD2 p.E1099K mutant (9B) (AID 1645876); further: nearly all actives have a fitted effect of over 70% in size; further: potency means the concentration at half of the fitted maximal effect
- details: RCH-ACV (leukaemia line) NSD2 E1099K (9B) viability, CellTiter-Glo, 72 h; series mostly up to 44.9 µM
Results filed as inconclusive are left out. The source made the active and inactive calls. The call rests on the fitted dose curve; in most records, active means well fitted inhibition curve with a large enough effect; inconclusive means small, poorly fitted or top-dose-only effect; inactive means flat fitted curve, though single readings scatter.
testReadout: Potency

| molecule | Potency |
| --- | --- |
| O=C1Cc2cc(Cl)ccc2N1 | inactive |
| CCCCC(O)/C=C(C)/C=C/C=C/C(=O)N1CCCC1=O (stereo not given) | inactive |
| CCC(C(=O)OCCN1CCOC(c2ccccc2)C1C)c1ccccc1 (stereo not given) | inactive |
| CC(C)C(C)(C)C(C)(C)C(C)(C)S | inactive |
| CCCCOCCOC(=O)c1cccnc1 | inactive |
| Cc1c(C)c2c(c(C)c1OC(=O)CCC(=O)OCCO)CC[C@@](C)(CCC[C@H](C)CCC[C@H](C)CCCC(C)C)O2 | 21.1 µM (active) |

stdin: Look up Potency: CO[C@@H]1[C@@H](OC)[C@H](C)[C@@](O)(CC(=O)O)O[C@H]1[C@H](C)[C@H]1O[C@@]2(CC[C@@](C)([C@H]3CC[C@@](C)([C@@H]4O[C@@H]([C@H]5O[C@](C)(O)[C@H](C)C[C@@H]5C)C[C@@H]4OC4C[C@H](OC)[C@@H](OC)[C@H](C)O4)O3)O2)C[C@H](O)[C@H]1C (stereo not given in full)
stdout: 0.596 µM (active)

stdin: Look up Potency: `CN1CCCN=C1/C=C/c1cccs1`
stdout: inactive

stdin: Look up Potency: `C[C@H]1C[C@H]2[C@@H]3CCC4=CC(=O)C=C[C@]4(C)[C@H]3C(=O)C[C@]2(C)[C@@]1(O)C(=O)CO`
stdout: inactive
